Test: Plasma protein binding in rat
Format: ADME, cell-free
Details: read-out: PPB (converted)
Below, each entry is listed with its recorded fraction unbound.

| smiles_entry | fraction unbound |
| --- | --- |
| O=C(NOCCO)c1ccc2[nH]ncc2c1Nc1ccc(Br)cc1F | 0.035 |
| O=C(NOC[C@H](O)CO)c1ccc2cnsc2c1Nc1ccc(I)cc1F | 0.008 |
| O=C(NOCCO)c1ccc2[nH]ncc2c1Nc1ccc(I)cc1F | 0.039 |

====

Assay: Half life in mouse at 25 mg/kg, po
Type: ADME, organism-based
Design: dose 25 mg/kg, route oral
Conditions: in vivo
quantity_kind: half-life

| smiles_entry | measured_value |
| --- | --- |
| O=C(NOCCO)c1ccc2[nH]ncc2c1Nc1ccc(I)cc1F | 2.9 h |

====

Biological target: Dual specificity mitogen-activated protein kinase kinase 1 (Homo sapiens, UniProt Q02750)
Sequence (Q02750 whole entry): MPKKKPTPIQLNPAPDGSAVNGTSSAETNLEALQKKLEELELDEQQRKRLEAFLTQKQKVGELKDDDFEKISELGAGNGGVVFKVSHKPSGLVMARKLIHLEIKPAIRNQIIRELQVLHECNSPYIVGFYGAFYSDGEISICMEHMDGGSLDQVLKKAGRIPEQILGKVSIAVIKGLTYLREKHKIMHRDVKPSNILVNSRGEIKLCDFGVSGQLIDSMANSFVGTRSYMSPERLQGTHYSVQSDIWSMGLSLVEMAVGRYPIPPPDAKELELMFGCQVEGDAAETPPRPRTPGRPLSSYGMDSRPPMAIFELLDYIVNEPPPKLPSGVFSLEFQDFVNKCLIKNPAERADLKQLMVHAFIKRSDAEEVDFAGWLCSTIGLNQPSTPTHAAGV
Assay: Inhibition of MEK1-mediated ERK1 phosphorylation in human HCT116 cells after 2 hrs by immunofluorescence high content imaging
hey, just use Y if measured EC50 is less than 1 nM, otherwise N

| smiles_entry | classification |
| --- | --- |
| O=C(NOC[C@H](O)CO)c1ccc2[nH]ncc2c1Nc1ccc(I)cc1F | Y |
| O=C(NOCCO)c1ccc2[nH]ncc2c1Nc1ccc(Br)cc1F | N |
| CCONC(=O)c1ccc2[nH]ncc2c1Nc1ccc(I)cc1F | N |
| C[C@H](O)CONC(=O)c1oc2c(F)cncc2c1Nc1ccc(I)cc1F | N |
| O=C(NOC[C@H](O)CO)c1ccc2cnsc2c1Nc1ccc(I)cc1F | Y |

====

Assay: Ratio of EC50 for human HCT116 cells to IC50 for MEK1-mediated ERK1 phosphorylation
Parameters: species or system HCT-116
Below, each entry is listed with its recorded Ratio.
quantity_kind: Ratio

| smiles_entry | measured_value |
| --- | --- |
| C[C@H](O)CONC(=O)c1oc2c(F)cncc2c1Nc1ccc(I)cc1F | 5 |
| O=C(NOCCO)c1ccc2[nH]ncc2c1Nc1ccc(Br)cc1F | 1.5 |
| O=C(NOC[C@H](O)CO)c1ccc2cnsc2c1Nc1ccc(I)cc1F | 2.9 |
| O=C(NOC[C@H](O)CO)c1ccc2[nH]ncc2c1Nc1ccc(I)cc1F | 2 |

====

Assay: Clearance in mouse at 1 mg/kg, iv
Assay type: ADME, organism-based
Design: dose 1 mg/kg, route intravenous
Settings: in vivo
Below, each entry is listed with its recorded clearance.
quantity_kind: clearance (mL/min/kg)

| smiles_entry | quantity_kind | result_unit | measured_value |
| --- | --- | --- | --- |
| O=C(NOCCO)c1ccc2[nH]ncc2c1Nc1ccc(I)cc1F | clearance | mL/min/kg | 88 |
| C[C@H](O)CONC(=O)c1oc2c(F)cncc2c1Nc1ccc(I)cc1F | clearance | mL/min/kg | 7.7 |

====

Test: Solubility of the compound in fasted state simulated intestinal fluid
Type: physicochemical

| smiles_entry | solubility (µg/mL) |
| --- | --- |
| O=C(NOCCO)c1ccc2[nH]ncc2c1Nc1ccc(I)cc1F | 180 |

====

Target: Dual specificity mitogen-activated protein kinase kinase 1 (Homo sapiens)
Test: Inhibition of MEK1-mediated ERK1 phosphorylation after 30 mins by HTRF assay
pIC50: −log10 of the molar value.

| smiles_entry | target_system | comparison_sign | pIC50 |
| --- | --- | --- | --- |
| CCONC(=O)c1ccc2[nH]ncc2c1Nc1ccc(I)cc1F | Dual specificity mitogen-activated protein kinase kinase 1 (Homo sapiens) | = | 7.03 |
| O=C(NCCCO)c1ccc2[nH]ncc2c1Nc1ccc(I)cc1F | Dual specificity mitogen-activated protein kinase kinase 1 (Homo sapiens) | < | 5.00 |
| C[C@H](O)CONC(=O)c1oc2c(F)cncc2c1Nc1ccc(I)cc1F | Dual specificity mitogen-activated protein kinase kinase 1 (Homo sapiens) | = | 7.46 |
| O=C(NOC[C@H](O)CO)c1ccc2cnsc2c1Nc1ccc(I)cc1F | Dual specificity mitogen-activated protein kinase kinase 1 (Homo sapiens) | = | 7.70 |
| O=C(NOCCO)c1ccc2[nH]ncc2c1Nc1ccc(Br)cc1F | Dual specificity mitogen-activated protein kinase kinase 1 (Homo sapiens) | = | 6.90 |
| O=C(NOC[C@H](O)CO)c1ccc2[nH]ncc2c1Nc1ccc(I)cc1F | Dual specificity mitogen-activated protein kinase kinase 1 (Homo sapiens) | = | 7.82 |
